Sourced from ChEMBL document CHEMBL1131843

tested on: Streptococcus pyogenes; experiment: In vitro antibacterial activity against Streptococcus pyogenes 77A; type: functional; settings: Streptococcus pyogenes; read-out: MIC
Measured MIC by item

{"Molecule": "C[C@@H](O)[C@H]1C(=O)N2C(C(=O)O)=C(S[C@@H]3CN[C@H](C(=O)N(C)C)C3)[C@H](C)[C@H]12 [MEROPENEM]", "Measurement units": "ng/mL", "MIC": 2}
{"Molecule": "C[C@@H](O)[C@H]1C(=O)N2C(C(=O)O)=C(SCCNC=N)C[C@H]12 [IMIPENEM ANHYDROUS]", "Measurement units": "ng/mL", "MIC": 4}
{"Molecule": "C[C@@H](O)[C@H]1C(=O)N2C(C(=O)O)=C(S[C@@H]3CN[C@H](C(=O)N4C[C@H](OC(N)=O)[C@@H](OC(N)=O)C4)C3)[C@H](C)[C@H]12", "Measurement units": "ng/mL", "MIC": 25}

----------
target: Dipeptidase 1 (Sus scrofa) (UniProt P22412); experiment: Relative hydrolysis to meropenem by partially purified porcine renal Dehydropeptidase-1 was reported.; parameters: scale not given: the % may be the effect or the level left
Sequence (P22412 whole entry): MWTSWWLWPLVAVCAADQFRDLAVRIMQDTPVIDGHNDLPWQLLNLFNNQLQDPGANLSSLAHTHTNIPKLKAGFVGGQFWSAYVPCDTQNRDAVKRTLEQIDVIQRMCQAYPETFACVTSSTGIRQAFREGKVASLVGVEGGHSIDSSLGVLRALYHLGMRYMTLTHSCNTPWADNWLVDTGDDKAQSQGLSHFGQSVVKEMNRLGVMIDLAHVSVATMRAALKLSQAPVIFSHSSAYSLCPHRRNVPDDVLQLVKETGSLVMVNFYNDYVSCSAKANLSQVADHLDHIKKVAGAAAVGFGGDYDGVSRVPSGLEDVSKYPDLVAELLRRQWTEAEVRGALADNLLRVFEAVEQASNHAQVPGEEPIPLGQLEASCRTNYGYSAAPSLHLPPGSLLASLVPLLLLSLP
Measured Stability by item

{"Compound": "C[C@@H](O)[C@H]1C(=O)N2C(C(=O)O)=C(S[C@@H]3CN[C@H](C(=O)N(C)C)C3)[C@H](C)[C@H]12", "Stability / %": 100}
{"Compound": "CC(=O)O[C@@H]1CN(C(=O)[C@@H]2C[C@H](SC3=C(C(=O)O)N4C(=O)[C@H]([C@@H](C)O)[C@H]4[C@H]3C)CN2)C[C@H]1OC(C)=O", "Stability / %": 50}
{"Compound": "CC(=O)O[C@H]1CN(C(=O)[C@@H]2C[C@H](SC3=C(C(=O)O)N4C(=O)[C@H]([C@@H](C)O)[C@H]4[C@H]3C)CN2)C[C@@H]1OC(C)=O (stereo in doubt; 1a)", "Stability / %": 63}
{"Compound": "C[C@@H](O)[C@H]1C(=O)N2C(C(=O)O)=C(S[C@@H]3CN[C@H](C(=O)N4C[C@H](OC(N)=O)[C@@H](OC(N)=O)C4)C3)[C@H](C)[C@H]12", "Stability / %": 53}
{"Compound": "C[C@@H](O)[C@H]1C(=O)N2C(C(=O)O)=C(SCCNC=N)C[C@H]12 [IMIPENEM ANHYDROUS]", "Stability / %": 19}
{"Compound": "CC(=O)O[C@H]1CN(C(=O)[C@@H]2C[C@H](SC3=C(C(=O)O)N4C(=O)[C@H]([C@@H](C)O)[C@H]4[C@H]3C)CN2)C[C@@H]1OC(C)=O (stereo in doubt; 1f)", "Stability / %": 66}

----------
Measured half-life by item
test: Half life was determined in mice at a single subcutaneous administration of 40 mg/kg (n=4); type: ADME, organism-based; set-up: dose 40 mg/kg, route subcutaneous; conditions: mouse, in vivo, sc
Metric name: half-life (min)

{"Molecule": "C[C@@H](O)[C@H]1C(=O)N2C(C(=O)O)=C(S[C@@H]3CN[C@H](C(=O)N(C)C)C3)[C@H](C)[C@H]12", "Metric name": "half-life", "Measurement units": "min", "Val": 16.2}
{"Molecule": "CC(=O)O[C@H]1CN(C(=O)[C@@H]2C[C@H](SC3=C(C(=O)O)N4C(=O)[C@H]([C@@H](C)O)[C@H]4[C@H]3C)CN2)C[C@@H]1OC(C)=O (stereo in doubt; 1a)", "Metric name": "half-life", "Measurement units": "min", "Val": 15}
